Where these numbers come from: the supplement of paper PMC10567573

Please provide measured protein stability index for the entries that follow.
B1: PPFIA4 (parent)
chain: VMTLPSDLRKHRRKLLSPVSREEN

Variants of: B1
ASSAY REMARKS: protein stability index of a GFP-peptide fusion (GPS, HEK-293T) (PSI 1-6); higher = more stable;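 also: lentivirally expressed fusions sorted by FACS into six bins by GFP to DsRed ratio, PSI derived from sequencing read proportions per bin multiplied by bin number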
SETTINGS: c terminus: a fixed tail appended
Numbers only.

SEQ STRING | OBSERVED RESULT
VMTLPSDLRKHRRKLWSPVSREEN [L16W] | 3.09

Your task in this section: give protein stability index for each listed record.
1. VMTLPSDLRKHRRKLLSPVSRMEN [E22M]
2. VMTLPSDLRKHYRKLLSPVSREEN [R12Y]

1. 3.25
2. 3.35

Your task in this section: give protein stability index for each listed record.
1. VMTLASDLRKHRRKLLSPVSREEN [P5A]
2. VMTWPSDLRKHRRKLLSPVSREEN [L4W]
3. VMTLPSDLRKHRRKLLSPVSREEY [N24Y]
4. VMTLPSDLRKHRRKLLSPVSREPN [E23P]
5. VMTLPSDLTKHRRKLLSPVSREEN [R9T]

1. 3.06
2. 4.09
3. 3.02
4. 3.5
5. 4
